Recorded values, source ChEMBL document CHEMBL1201862.

- Test system: NCI-H460
- PROTOCOL TEXT: NCI tumour cell line growth inhibition, 48 h
Where a name gives a salt, the structure may show the parent alone. The source made the active and inactive calls. Cut-off read from the data, not from the text of the source: active = GI50 up to about 1.1 µM and inactive = higher.
Could you please pick one outcome from this set? active, inactive

q: Outcome logged for CCN(CC)CC(=O)NC1c2ccccc2Oc2c(C)cccc21 (stereo not drawn) in this assay:
a: inactive

q: Outcome logged for CC(C)/C(Cl)=N/OC(=O)Nc1ccc(Cl)c(Cl)c1 in this assay:
a: inactive

q: Outcome logged for O/N=C/c1cc2c(cc1Br)OCO2 in this assay:
a: inactive

q: Outcome logged for Cc1[nH]c2ncn3ncnc3c2c1Cc1ccccc1 in this assay:
a: inactive

q: Outcome logged for CC(=O)OCC1OC(n2c(C)c(/N=N/c3ccc(Cl)cc3)c(C)c(C#N)c2=S)C(OC(C)=O)C(OC(C)=O)C1OC(C)=O (stereo not drawn) in this assay:
a: inactive

q: Outcome logged for CC1=NN(c2cccc(Cl)c2)C2(C1=Cc1ccccc1)C(Cl)C(=O)N2c1nc2ccccc2s1 (stereo not drawn) in this assay:
a: inactive

q: Outcome logged for O=C(O)c1ccc(Nc2nc3ccccc3nc2-c2cccs2)cc1 in this assay:
a: inactive

q: Outcome logged for Cc1ccccc1-c1nc2c(N)nc(N)nc2nc1N in this assay:
a: inactive

q: Outcome logged for CN(C)[C@H]1CC[C@H]2[C@@H]3CCC4C[C@@H](NC(=O)NC(Cc5ccccc5)c5nccs5)CC[C@]4(C)[C@H]3CC[C@]12C (stereo partly drawn) in this assay:
a: active

q: Outcome logged for CC1=NN(C(=O)CC(=O)NC(=O)/C=C\c2ccccc2)C(=O)C1/N=N/c1ccc([N+](=O)[O-])cc1 (stereo not drawn) in this assay:
a: inactive

q: Outcome logged for O=C1C2C(C(=O)N1c1ccccc1)C1(c3ccccc3)OC2(c2ccccc2)c2ccccc21 (stereo not drawn) in this assay:
a: inactive

q: Outcome logged for CN(C)CCNC(=O)c1ccc(Cl)c2ccc(-c3ccccc3)nc12 in this assay:
a: inactive

q: Outcome logged for CC(C)C[C@H](NC(=O)[C@H](Cc1ccccc1)NC(=O)c1cnccn1)B(O)O in this assay:
a: active

q: Outcome logged for CC1CNC(c2ccc(COc3ccc(C4=NC(C)CN4)cc3)cc2)=N1 (stereo not drawn) in this assay:
a: inactive

q: Outcome logged for CSC1CC2C(CC1(C)O)C2(C)C (stereo not drawn) in this assay:
a: inactive

q: Outcome logged for CCN1CCCCC(=N\O)/C(=N/O)CCCC1 in this assay:
a: inactive

q: Outcome logged for C=C1C[C@@H]2CC[C@@]34C[C@H]5O[C@H]6[C@@H](O3)[C@H]3O[C@H](CC[C@@H]3O[C@H]6[C@H]5O4)CC(=O)C[C@@H]3[C@@H](OC)[C@@H](C[C@H](O)CN)O[C@H]3C[C@H]3O[C@@H](CC[C@@H]1O2)C[C@@H](C)C3=C [ERIBULIN MESYLATE] in this assay:
a: active

q: Outcome logged for CCN(CC)CCOC(c1cc(OC)ccc1OC)c1ccc2n1-c1ccccc1OC2 (stereo not drawn) in this assay:
a: inactive

* * *

- System: NCI-H522
- PROTOCOL TEXT: NCI tumour cell line growth inhibition, 48 h
The source made the active and inactive calls. Cut-off read from the data, not from the text of the source: active = GI50 up to about 1.1 µM and inactive = higher.
Provide the reported GI50 of each item.

q: Requested read-out: GI50. Entry: O=S(=O)(/C=C/c1ccc(Cl)cc1Cl)Cc1ccccc1CS(=O)(=O)/C=C/c1ccc(Cl)cc1Cl
a: > 100 µM (inactive)

q: Requested read-out: GI50. Entry: Cc1[nH]c2ncn3ncnc3c2c1Cc1ccccc1
a: > 100 µM (inactive)

q: Requested read-out: GI50. Entry: CC1CC/C(=C\c2ccc(N(C)C)cc2)C(=O)/C1=C/c1ccc(N(C)C)cc1 (stereo not given)
a: > 100 µM (inactive)

q: Requested read-out: GI50. Entry: C[C@@H](CN1CC(=O)NC(=O)C1)N1CC(=O)NC(=O)C1
a: 67.8 µM (inactive)

q: Requested read-out: GI50. Entry: CCOC(=O)c1cc(C)nc2c1c(=O)n(-c1ccccc1)c(=O)n2CCCCN1CCN(c2ccccc2)CC1
a: 87.1 µM (inactive)

q: Requested read-out: GI50. Entry: Clc1ccc(OCCSCCCCCCCCCCSCCOc2ccc(Cl)cc2)cc1
a: > 100 µM (inactive)

q: Requested read-out: GI50. Entry: Nc1c(S(=O)(=O)c2ccccc2)c2nc3ccccc3nc2n2c1nc1ccccc12
a: 36.5 µM (inactive)

q: Requested read-out: GI50. Entry: CC(C)C(C/C=C1/CC(CO)(COC(=O)CC(C(C)C)C(C)C)OC1=O)C(C)C (stereo not given)
a: 12.9 µM (inactive)

q: Requested read-out: GI50. Entry: CCN(CC)c1ccc(/C=C/C(=O)c2cc(C(C)(C)C)c(O)c(C(C)(C)C)c2)cc1
a: 3.07 µM (inactive)

q: Requested read-out: GI50. Entry: O=C(O)c1c(CC(Cc2ccc3c(c2)CCCC3)C(=O)O)ccc2c1CCCC2 (stereo not given)
a: > 100 µM (inactive)

* * *

- Tested on: CCRF-CEM
- PROTOCOL TEXT: NCI tumour cell line growth inhibition, 48 h
Activity calls are given as the source filed them. No stated cut-off is given here; in the data, active = GI50 up to about 1.1 µM and inactive = higher.
Could you please pick one outcome from this set? active, inactive

q: Outcome logged for O=C(Nc1ccc(S(=O)(=O)N[C@@H](C(=O)O)c2ccccc2)cc1)c1ccc(F)cc1 in this assay:
a: inactive

q: Outcome logged for O=[N+]([O-])c1cccc2nc3ccccc3c(NCCC[N+]3([O-])CCOCC3)c12 in this assay:
a: active

q: Outcome logged for CN(CCc1ccccn1)c1ccc2c(c1)C(=O)c1ccccc1-2 in this assay:
a: inactive

q: Outcome logged for CC(C)(C)OC/C=C(\Br)CO in this assay:
a: inactive

q: Outcome logged for O=CC(O)C(O)C(O)COc1cc(CO)cc2c1C(=O)c1ccccc1C2=O (stereo unspecified) in this assay:
a: inactive

q: Outcome logged for COc1ccccc1/C(=N\OCCC(=O)O)c1cccs1 in this assay:
a: inactive

q: Outcome logged for O=C(/C=C(\S/C=C(/c1ccccc1)N1CCn2c(C(=O)c3ccccc3)c(C(=O)c3ccccc3)c(C(=O)c3ccccc3)c21)C(=O)c1ccccc1)c1ccccc1 in this assay:
a: inactive

q: Outcome logged for Clc1ccc(N/N=C(\c2ccccc2)c2ccccn2)nc1 in this assay:
a: active

q: Outcome logged for CN(C(=O)C12C3C4C1C1C2C3C41C(=O)C(C)(C)C)C(C)(C)C (stereo unspecified) in this assay:
a: inactive

q: Outcome logged for Cc1cccc(C)c1NC(=O)C(=O)Cc1nc2ccccc2s1 in this assay:
a: inactive

q: Outcome logged for O=C(NC(=O)c1c(F)cccc1F)Nc1cccc(Oc2ncc(Cl)cn2)c1 in this assay:
a: inactive

* * *

- Test system: SK-MEL-5
- PROTOCOL TEXT: NCI tumour cell line growth inhibition, 48 h
Calls of active or inactive are those of the source. Cut-off read from the data, not from the text of the source: active = GI50 up to about 1.1 µM and inactive = higher.
Could you please pick one outcome from this set? Y (active), N (inactive)

q: Outcome logged for Nc1nc(F)nc2c1ncn2C1OC(COP(=O)(O)O)C(O)C1O (stereo not given) in this assay:
a: N

q: Outcome logged for CN(C)CCCN1c2ccccc2Sc2ccc3ccccc3c21 in this assay:
a: N

q: Outcome logged for C=C1C(=O)O[C@H]2C1C[C@H](O)/C(C)=C/CC[C@@]1(C)O[C@H]21 (stereo not given in full) in this assay:
a: N

q: Outcome logged for Cn1cnc([N+](=O)[O-])c1SCC(=O)O in this assay:
a: N

q: Outcome logged for OB1OCc2ccccc21 in this assay:
a: N

q: Outcome logged for CC1=CC(=O)[C@@H](O)[C@]2(C)[C@H]3[C@@]4(O)OC[C@@]35[C@@H](C[C@@H]12)OC(=O)C(OC(=O)CC1=CCCC1)[C@H]5[C@@H](C)[C@H]4O (stereo not given in full) in this assay:
a: Y

q: Outcome logged for Cc1ccc(S(=O)(=O)N/N=C/c2oc(-c3ccccc3Cl)c(-c3ccccc3Cl)c2[N+](=O)[O-])cc1 in this assay:
a: N

q: Outcome logged for C=CCOC1=C2CC[C@H](O)[C@@]2(C)CCC1=O in this assay:
a: N

q: Outcome logged for CCOC(=O)C1=C(C)OC(=O)[C@@]2(OC)C=C(Cl)[C@@]12C in this assay:
a: N

q: Outcome logged for C=CCOC(=O)CC[N+]1=CCC(c2ccccc2)(c2ccccc2)O1 in this assay:
a: N

* * *

- System: IGROV-1
- PROTOCOL TEXT: NCI tumour cell line growth inhibition, 48 h
Counter-ions that a name gives are not always drawn. Activity calls are given as the source filed them. No stated cut-off is given here; in the data, active = GI50 up to about 1.1 µM and inactive = higher. Residues, ends and D or L forms follow the SMILES beside them. *: point of attachment. Tfa = O=C(C(F)(F)F)*
Provide the reported GI50 of each item.

q: Requested read-out: GI50. Entry: CC1=Nn2c(nnc2-c2ccccc2Cl)NC(C)(C)C1
a: > 100 µM (inactive)

q: Requested read-out: GI50. Entry: CSc1nc2c(=O)n(-c3ccccc3)c(=S)n(-c3ccccc3)c2s1
a: > 100 µM (inactive)

q: Requested read-out: GI50. Entry: O=C(O)CC(NC(=O)C(F)(F)F)C(=O)NC(Cc1ccc(O)cc1)C(=O)O (stereo not drawn) (Tfa-Asp-Tyr-OH; configuration not given here)
a: > 50 µM (inactive)

q: Requested read-out: GI50. Entry: O=CC(O)C(O)C(O)COc1cc(CO)cc2c1C(=O)c1ccccc1C2=O (configuration not stated)
a: > 100 µM (inactive)

q: Requested read-out: GI50. Entry: CCN1CCCCC(=N\O)/C(=N/O)CCCC1
a: > 100 µM (inactive)

q: Requested read-out: GI50. Entry: N#C[C@@H](c1nc2ccccc2s1)c1ncccc1[N+](=O)[O-]
a: 5.07 µM (inactive)

q: Requested read-out: GI50. Entry: CCC(=O)c1c(NOC2OCC(OC(C)=O)C(OC(C)=O)C2OC(C)=O)nc(OC)n(C)c1=O (configuration not stated)
a: > 100 µM (inactive)

q: Requested read-out: GI50. Entry: Cc1cn([C@@H]2O[C@H](CO[Si](C)(C)C(C)(C)C)[C@]3(O[C@H]3C(=O)NO)[C@H]2O[Si](C)(C)C(C)(C)C)c(=O)[nH]c1=O
a: 1.71 µM (inactive)

q: Requested read-out: GI50. Entry: O=c1[nH]cnc2sc(=S)c3c(c12)CCC3
a: 15.8 µM (inactive)

q: Requested read-out: GI50. Entry: COC(=O)N1CC(=O)C(C(=O)NC23CC4CC(CC(C4)C2)C3)C1 (configuration not stated)
a: > 100 µM (inactive)

q: Requested read-out: GI50. Entry: CC(=O)c1c(C)[n+]([O-])c2cc(Cl)c(Cl)cc2[n+]1[O-]
a: 4.98 µM (inactive)

q: Requested read-out: GI50. Entry: CCN(CC)CCOC(c1cc(OC)ccc1OC)c1ccc2n1-c1ccccc1OC2 (configuration not stated)
a: 7 µM (inactive)

q: Requested read-out: GI50. Entry: CN(C)c1ccc(-c2[nH]c(=O)c3ccccc3[n+]2C)cc1
a: > 100 µM (inactive)

q: Requested read-out: GI50. Entry: CN(C)CCCN1c2ccccc2Sc2ccc3ccccc3c21
a: 8.67 µM (inactive)

q: Requested read-out: GI50. Entry: Cc1ccc2c(=O)[nH]sc2c1
a: 19.7 µM (inactive)

q: Requested read-out: GI50. Entry: CCNC(=S)NNC(=O)c1ccccc1Nc1ccccc1C(=O)NNC(=S)NCC
a: > 100 µM (inactive)

q: Requested read-out: GI50. Entry: COc1ccccc1C1CC(=O)CC(c2ccccc2OC)C12C(=O)NC(=S)NC2=O (configuration not stated)
a: 68.9 µM (inactive)

q: Requested read-out: GI50. Entry: Cc1ccccc1C(C#N)/C(=N/NC(N)=S)C(=O)Nc1c(C)cccc1C (configuration not stated)
a: > 100 µM (inactive)

q: Requested read-out: GI50. Entry: CN(C)C(=N)NC(N)=S
a: > 100 µM (inactive)

q: Requested read-out: GI50. Entry: ON[C@@H]1C=C[C@H](n2cnc3c(NC4CC4)ncnc32)C1
a: 94.4 µM (inactive)

q: Requested read-out: GI50. Entry: CCOC(=O)c1nc2ccc(OC)cc2c2c1Cc1ccccc1-2
a: > 100 µM (inactive)

q: Requested read-out: GI50. Entry: O=C(/C=C/c1ccccc1)Oc1ccc(C(=O)/C=C/c2ccc(Cl)cc2)cc1
a: > 100 µM (inactive)
